# targetSystem: UniProt C7C422
# Sequence (C7C422 whole entry, looked up, species assumed): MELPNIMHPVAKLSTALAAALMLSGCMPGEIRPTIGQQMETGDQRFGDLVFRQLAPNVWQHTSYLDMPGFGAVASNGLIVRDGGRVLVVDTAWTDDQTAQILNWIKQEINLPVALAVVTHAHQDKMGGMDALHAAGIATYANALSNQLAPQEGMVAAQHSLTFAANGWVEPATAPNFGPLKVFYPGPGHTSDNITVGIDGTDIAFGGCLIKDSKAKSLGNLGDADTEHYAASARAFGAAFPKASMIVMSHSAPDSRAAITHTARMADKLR
Structures can show the parent of a compound that is named as a salt.
The reader will find reported pIC50 values listed item by item below.
Scale explanation: pIC50 corresponds to minus log10 of a concentration expressed in moles per litre.

[
  {
    "compound": "NCCNS(=O)(=O)c1ccc(N2CCC(CN)CC2)c(-c2nnn[nH]2)c1S(N)(=O)=O [Example 35]",
    "pIC50": 8.44
  },
  {
    "compound": "NC[C@@H](O)CNS(=O)(=O)c1ccc(N2CCC(CNCCO)CC2)c(-c2nn[nH]n2)c1S(N)(=O)=O [Example 123]",
    "pIC50": 7.97
  },
  {
    "compound": "CC1(C)CN(c2ccc(S(=O)(=O)NC[C@H](O)CN)c(S(N)(=O)=O)c2-c2nn[nH]n2)CCN1CCO [Example 173]",
    "pIC50": 7.70
  },
  {
    "compound": "NS(=O)(=O)c1c(S(=O)(=O)C2CNC2)ccc(N2CC[C@H](CO)[C@H](F)C2)c1-c1nnn[nH]1 [Example 61]",
    "pIC50": 9.05
  },
  {
    "compound": "NCCC1CCN(c2ccc(S(=O)(=O)NC[C@H](O)CN)c(S(N)(=O)=O)c2-c2nn[nH]n2)CC1 [Example 24]",
    "pIC50": 8.29
  }
]

Summary: NCC1CCN(c2ccc(S(=O)(=O)N[C@H](CN)CO)c(S(N)(=O)=O)c2-c2nn[nH]n2)CC1 [Example 186] , UniProt C7C422, pIC50 = 7.73

pIC50 value, target or system UniProt C7C422, for NC[C@@H](O)CNS(=O)(=O)c1ccc(N2CC[C@@H](CN)C2)c(-c2nn[nH]n2)c1S(N)(=O)=O [Example 121] : 7.23

Tested on UniProt C7C422: N.NC[C@@H](O)CNS(=O)(=O)c1ccc(N2CCN(CC(=O)O)CC2)c(-c2nnn[nH]2)c1S(N)(=O)=O [Example 137] . Observed pIC50: 8.46

Item NCCNS(=O)(=O)c1ccc(N2CCN(CCCO)CC2)c(-c2nnn[nH]2)c1S(N)(=O)=O [Example 41] was tested on UniProt C7C422; the reported pIC50 is 8.22

Field pIC50 (system: UniProt C7C422) for entry NS(=O)(=O)c1c(S(=O)(=O)N[C@@H]2CCNC2)ccc(N2CCC(Oc3ccccn3)CC2)c1-c1nnn[nH]1 [Example 110] = 10.22

The compound NC[C@@H](O)CNS(=O)(=O)c1ccc(N2CCC(c3ncc[nH]3)CC2)c(-c2nn[nH]n2)c1S(N)(=O)=O [Example 201] , tested on UniProt C7C422, showed pIC50 of 8.74

Query NC[C@@H](O)CNS(=O)(=O)c1ccc(N2CC[C@H](CN)[C@H](O)C2)c(-c2nn[nH]n2)c1S(N)(=O)=O [Example 9] on UniProt C7C422; pIC50 returned: 8.46

UniProt C7C422 data for CC(=O)N[C@H]1CCN(c2ccc(S(=O)(=O)N[C@@H]3CCNC3)c(S(N)(=O)=O)c2-c2nnn[nH]2)C1 [Example 83] ; its pIC50: 8.30

# NS(=O)(=O)c1c(S(=O)(=O)C2CNC2)ccc(N2CC3C(CO)C3C2)c1-c1nnn[nH]1 (stereo not drawn) [Example 62] with UniProt C7C422: pIC50 is 8.54

Known value: UniProt C7C422 pIC50 of the compound NCC1CCCN(c2ccc(S(=O)(=O)NC[C@H](O)CN)c(S(N)(=O)=O)c2-c2nn[nH]n2)CC1 (stereo partly drawn) [Example 139, trifluoroacetate] equals 7.74

Note to self: pIC50 of NC[C@@H]1CCCN(c2ccc(S(=O)(=O)N[C@@H]3CCNC3)c(S(N)(=O)=O)c2-c2nnn[nH]2)C1 [Example 78] with UniProt C7C422 was 8.27

UniProt C7C422 data for NC[C@@H](O)CNS(=O)(=O)c1ccc(N2CCC3(CCNC3)C2)c(-c2nn[nH]n2)c1S(N)(=O)=O (stereo partly drawn) [Example 133, di-trifluoroacetic acid] ; its pIC50: 7.90

Here NCC1CCN(c2ccc(S(=O)(=O)N[C@@H]3CCNC3)c(S(N)(=O)=O)c2-c2nnn[nH]2)CC1 [Example 77] was tested on UniProt C7C422, and its pIC50 came to 9.28
